biological target: human GnRH receptor (Homo sapiens); construct: The cDNA for the human GnRH receptor is cloned into the plasmid expression vector, pcDNA 3; expressed in transfected cells; host or cells: HEK 293 cells, stably transfected (pcDNA 3); membrane preparation; experiment: GnRH receptor competitive radioligand binding assay (125I-GnRH-A, HEK 293 cell membranes); conditions: compound at 10 μM; average of 1st and 2nd test; read-out: Average % Remaining (percent of specific binding remaining)
Please go through the items and note down their remaining activity at 10 µM.
One number for each entry, in %.

Reference set (3 entries):
In: Returns the measured remaining activity at 10 µM for the input molecule. Input: Cc1cc2c(cc1CN(CC1CCC(CNC(=N)N)CC1)C(=O)c1ccc(C#N)cc1)C(C)(C)CCC2(C)C (stereo not shown) [Compound 98]
Out: 58

In: Field request: remaining activity at 10 µM | item: N=C(N)NCCCCN(CC12CC=CCC1C1CC=CCC1O2)C(=O)c1ccc2ccccc2c1 (stereo not shown) [Compound 26]
Out: 36

In: What value of remaining activity at 10 µM has been reported for the following molecule? CCCCC(CC)C(=O)N(Cc1cc2c(cc1C)C(C)(C)CCC2(C)C)CC1CCC(CNC(=N)N)CC1 (stereo not shown) [Compound 117]
Out: 57

API: the following record is the query input.
In: Which remaining activity at 10 µM value is on record for N=C(N)NCC1CCCC(CN(Cc2cnc3ccccc3c2)C(=O)c2ccc3ccccc3c2)C1 (stereo not shown) [Compound 51] ?
Out: 56

---

target: human GnRH receptor (Homo sapiens, UniProt P30968); construct: The cDNA for the human GnRH receptor is cloned into the plasmid expression vector, pcDNA 3; expressed in transfected cells; host or cells: HEK 293 cells, stably transfected (pcDNA 3); membrane preparation; experiment: GnRH receptor competitive radioligand binding assay (125I-GnRH-A, HEK 293 cell membranes); conditions: compound at 10 μM; crude compounds; 125I-GnRH-A; lower value = higher inhibition; read-out: % Remaining 2nd Test (percent of specific binding remaining)
Sequence (P30968 whole entry): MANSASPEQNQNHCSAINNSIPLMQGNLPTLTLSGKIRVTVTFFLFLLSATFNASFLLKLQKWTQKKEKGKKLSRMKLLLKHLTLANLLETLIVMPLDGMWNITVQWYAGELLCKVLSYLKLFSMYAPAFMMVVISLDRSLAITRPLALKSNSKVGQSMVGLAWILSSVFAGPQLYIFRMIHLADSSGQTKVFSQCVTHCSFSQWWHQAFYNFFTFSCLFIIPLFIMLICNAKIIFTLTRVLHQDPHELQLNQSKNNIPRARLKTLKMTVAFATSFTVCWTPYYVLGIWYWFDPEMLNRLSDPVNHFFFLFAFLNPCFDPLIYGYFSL
Answer each item with its documented remaining activity at 10 µM.
Provide a numeric answer, followed by its unit.

In: Entry Cc1cc2c(cc1CN(Cc1ccc(CNC(=N)N)cc1)C(=O)c1cccc3ccccc13)C(C)(C)CCC2(C)C [Compound 11] has what remaining activity at 10 µM?
Out: 50%

Items follow; give remaining activity at 10 µM for each.
1. CN(C)Cc1ccc(CN(CC2C=CCC3C4CC=CCC4OC23)C(=O)c2ccc3ccccc3c2)cc1 (stereo not shown) [Compound 68]
2. N=C(N)NCC1CCC(CN(Cc2cccc(Oc3ccc(Cl)cc3)c2)C(=O)C2CCCC2)CC1 (stereo not shown) [Compound 77]
3. Cc1cc2c(cc1CN(Cc1ccc(CNC(=N)N)cc1)C(=O)c1ccccc1)C(C)(C)CCC2(C)C [Compound 14]
4. CC(C)(C)c1ccc(CN(Cc2ccc(CNC(=N)N)cc2)C(=O)c2ccccc2)cc1 [Compound 2]

Out:
1. 44%
2. 56%
3. 54%
4. 54%

---

biological target: human GnRH receptor (Homo sapiens, UniProt P30968); construct: The cDNA for the human GnRH receptor is cloned into the plasmid expression vector, pcDNA 3; expressed in transfected cells; host or cells: HEK 293 cells, stably transfected (pcDNA 3); membrane preparation; assay: GnRH receptor competitive radioligand binding assay (125I-GnRH-A, HEK 293 cell membranes); conditions: compound at 10 μM; crude compounds; 125I-GnRH-A; lower value = higher inhibition; read-out: % Remaining 2nd Test (percent of specific binding remaining)
measure name: remaining activity at 10 µM (%)
Numbers only, in %.

The cases that follow already have their remaining activity at 10 µM on record.
In: Identify the measured remaining activity at 10 µM of CC(=O)O[C@@H](C)C(=O)N(Cc1cc2c(cc1C)C(C)(C)CCC2(C)C)CC1CCC(CNC(=N)N)CC1 (stereo partly drawn) for human GnRH receptor (Homo sapiens, UniProt P30968).
Out: 57

In: Form entry - test system: human GnRH receptor (Homo sapiens, UniProt P30968); read-out: remaining activity at 10 µM; compound: Cc1cc2c(cc1CN(CC1CCC(CNC(=N)N)CC1)C(=O)C1CCCC1)C(C)(C)CCC2(C)C (stereo not drawn)
Out: 50

Hey, can you go through the list below and give me remaining activity at 10 µM for every item?
1. Cc1cc2c(cc1CN(CC1CCC(CNC(=N)N)CC1)C(=O)c1ccc([N+](=O)[O-])o1)C(C)(C)CCC2(C)C (stereo not drawn)
2. Cc1cc2c(cc1CN(CC1CCC(CNC(=N)N)CC1)C(=O)c1cnn(-c3ccccc3)c1C(F)(F)F)C(C)(C)CCC2(C)C (stereo not drawn)
3. N=C(N)NCC1CCCC(CN(CC23CC=CCC2C2CC=CCC2O3)C(=O)c2ccc3ccccc3c2)C1 (stereo not drawn)
4. N=C(N)NCC1CCCC(CN(Cc2cnc3ccccc3c2)C(=O)c2ccc3ccccc3c2)C1 (stereo not drawn)
5. CN(C)CCCOc1ccc(CN(Cc2ccc(CNC(=N)N)cc2)C(=O)c2ccc3ccccc3c2)cc1

Out:
[48, 58, 40, 63, 57]

Record remaining activity at 10 µM per entry; entries follow.
1. N=C(N)NCc1cccc(CN(CC23CC=CCC2C2CC=CCC2O3)C(=O)c2ccc3ccccc3c2)c1 (stereo not drawn)
2. CC(C)(C)c1ccc(CN(CC2CCCC(CNC(=N)N)C2)C(=O)c2ccccc2)cc1 (stereo not drawn)
3. CC(=O)N(CCCCNC(=N)N)Cc1ccc(OCc2ccccc2)c(OCc2ccccc2)c1

Out:
[45, 62, 54]

Need remaining activity at 10 µM for each of these compounds.
1. N=C(N)NCc1ccc(CN(CC23CC=CCC2C2CC=CCC2O3)C(=O)c2cccc3ccccc23)cc1 (stereo not drawn)
2. N=C(N)NCC1CCCC(CN(CC23CC=CCC2C2CC=CCC2O3)C(=O)c2ccc(Cl)nc2)C1 (stereo not drawn)
3. CC(C)(C)c1ccc(CN(CC2CCC(CNC(=N)N)CC2)C(=O)c2cc3ccccc3s2)cc1 (stereo not drawn)
4. Cc1cc2c(cc1CN(CC1CCC(CNC(=N)N)CC1)C(=O)c1ccco1)C(C)(C)CCC2(C)C (stereo not drawn)
5. N=C(N)NCc1ccc(CN(CC23CC=CCC2C2CC=CCC2O3)C(=O)c2ccccc2)cc1 (stereo not drawn)

Out:
[40, 62, 54, -4, 48]
